Listed next: entries and their corresponding TGI.
# System: MALME-3M melanoma
# protocolNotes: NCI tumour cell line growth inhibition, 48 h

Nc1nc(SCc2ccccc2)c2ncn(Cc3ccccc3)c2n1: > 89.1 µM
CC1=Cc2cc3[n-]c(cc4nc(cc5[n-]c(cc1n2)cc5C)C(C)=C4CCC(=O)O)c(CCC(=O)O)c3C.[Pd+2]: 38.5 µM
CC(C)(O)C1OCC(C2CCC3(C)C4=CCC5C(C)(C)C(O)CCC5(C)C4CCC23C)CC1O (stereo not given): 39.5 µM
COc1ccc2c3ccc4c(c3n(C)c2c1)C(=O)c1ccccc1C4=O: > 100 µM
COc1ccc(/C=C\c2cc(OC)c(OC)c(OC)c2)cc1OCC(=O)Nc1nc2ccc(C(F)(F)F)cc2s1: > 100 µM

Param item = COc1cc2cc(C(=O)N3CC(CCl)c4ccc(NCCN)cc43)[nH]c2c(OC)c1OC (stereo not given) ; retrieve measured TGI.
0.391 µM

Param item = Cc1ccc2c(=O)c3cccc(CC(=O)O)c3oc2c1C ; retrieve measured TGI.
> 100 µM

###

# Tested on: LOX IMVI melanoma
# protocolNotes: NCI tumour cell line growth inhibition, 48 h
Listed next: entries and their corresponding GI50.

O=C(C(Br)Br)C(Br)C(Br)c1ccccc1 (stereo not given): 1.49 µM
Cc1cc2c(F)c(Oc3ncnn4cc(OC[C@@H](C)OC(=O)[C@H](C)N)c(C)c34)ccc2[nH]1: 3.75 µM
C[N+](C)(CCCCCC[N+](C)(C)CCCN1C(=O)c2cc3ccccc3cc2C1=O)CCCN1C(=O)c2ccccc2C1=O: > 37.5 µM

Param item = C=C(CN1CCc2ccccc2C1)c1ccc(C(=O)Nc2ccc(N)cc2)cc1 ; retrieve measured GI50.
17.7 µM

Param item = Cc1nc2cccc(NCc3ccc(C(=O)NO)cc3)c2c(=O)n1-c1ccccc1 ; retrieve measured GI50.
1.82 µM

###

# Test system: NCI-H460 lung
metric: GI50

CC[N+](CC)(CC)CCCn1c2c(c3ccccc3c1=O)C(=O)c1ccccc1-2: 1.85 µM

Param item = Fc1ccc(-c2ccc(-c3nnc(-c4cc(F)c(Cl)cc4Cl)o3)o2)cc1Cl ; retrieve measured GI50.
29.7 µM

Param item = CC1(C)N=C(N)N=C(N)N1c1cc(Cl)ccc1Cl ; retrieve measured GI50.
60.6 µM

Param item = O=C(NOCC1CC1)c1ccc(F)c(F)c1Nc1ccc(I)cc1Cl ; retrieve measured GI50.
2.42 µM

###

# Tested on: MDA-MB-435
# protocolNotes: NCI tumour cell line growth inhibition, 48 h
Listed next: entries and their corresponding TGI.
Reply with just the number (in µM).

Check out these entries, answers already filled in.
COc1ccc(OC)c2nc3c(C(=O)NCCN(C)C)cccc3nc12: 17.5
CCN(CC)CCS(=O)c1c2cc(OC)ccc2nc2ccc(OC)cc12 (stereo unspecified): 26.6
CC(=O)Nc1ccc2c(C)c3c4ccccc4n(C)c3nc2n1: 45.7

Param item = Cc1cc2c(F)c(Oc3ncnn4cc(OC[C@@H](C)OC(=O)[C@H](C)N)c(C)c34)ccc2[nH]1 ; retrieve measured TGI.
23.8

###

Listed next: entries and their corresponding GI50.
# Test system: SNB-75 CNS
# protocolNotes: NCI tumour cell line growth inhibition, 48 h

Check out these entries, answers already filled in.
OCCCCC#Cc1ccccc1C#Cc1ccccc1C(F)(F)F: 18.7 µM
O=C(C(Br)Br)C(Br)C(Br)c1ccccc1 (stereo not drawn): 19.9 µM
C=C1C(=O)O[C@H]2[C@H]1CC/C(Cn1cc(-c3ccccc3)nn1)=C\CC[C@@]1(C)O[C@@H]21: 6.21 µM
C=C(CN1CCc2ccccc2C1)c1ccc(C(=O)Nc2ccc(N)cc2)cc1: 9.87 µM
Nc1ncnc2nc(-c3ccc(C[P+](c4ccccc4)(c4ccccc4)c4ccccc4)cc3)[nH]c12: 57.7 µM
COc1ccc(/C=C\c2cc(OC)c(OC)c(OC)c2)cc1OCC(=O)Nc1nc2ccc(C(F)(F)F)cc2s1: 1.58 µM
O=C(NC(=S)Nc1ccc(Cl)cc1)c1ccccc1: > 49.7 µM
S=C(Nc1ccc(Cl)cc1)Nc1ccc(Cl)cc1 (tested in a mixture with another compound): 1.65 µM
C[N+](C)(CCCCCC[N+](C)(C)CCCN1C(=O)c2cc3ccccc3cc2C1=O)CCCN1C(=O)c2ccccc2C1=O: > 37.5 µM
O=[N+]([O-])/C=C/c1c[nH]c2ccccc12: 4.45 µM

Param item = Cc1[nH]c(/C=C2\C(=O)Nc3ccc(F)cc32)c(C)c1C(=O)NC[C@H](O)CN1CCOCC1 ; retrieve measured GI50.
7.33 µM

Param item = O=C1OC(=O)C2C1C1(c3ccccc3)C(c3ccccc3)=C(c3ccccc3)C2(c2ccccc2)S1=O (stereo not drawn) ; retrieve measured GI50.
> 100 µM

Param item = N=C(N)CCCCCCCCC(=N)N ; retrieve measured GI50.
29.1 µM

###

# Tested on: EKVX NSCLC
# protocolNotes: NCI tumour cell line growth inhibition, 48 h
metric: GI50

Check out these entries, answers already filled in.
O=C(C(Br)Br)C(Br)C(Br)c1ccccc1 (stereo not given): 14.5 µM
CC1(C)N=C(N)N=C(N)N1c1cc(Cl)ccc1Cl: > 100 µM
C=C(CN1CCc2ccccc2C1)c1ccc(C(=O)Nc2ccc(N)cc2)cc1: 22.4 µM
O=C(Nc1ccc(Cl)cc1)c1cc2ccccc2cc1O: 2.98 µM

Param item = N.N.NC(CS)C(=O)[O-].NC(CS)C(=O)[O-].[Pt+4] (stereo not given) ; retrieve measured GI50.
> 50 µM

Param item = Cc1ccc2c(=O)c3cccc(CC(=O)O)c3oc2c1C ; retrieve measured GI50.
> 100 µM

Param item = O=C1c2ccccc2-c2c1c1ccccc1c(=O)n2CCCN1CCOCC1 ; retrieve measured GI50.
22.7 µM

Param item = CN(C)Cc1ccc(C(=O)Nc2ccc3ncnc(Nc4ccc(Oc5cccc(F)c5)c(Cl)c4)c3c2)cc1 ; retrieve measured GI50.
1.3 µM

Param item = Cc1cc(S(=O)(=O)Nc2nnc(-c3ccccc3)c(-c3ccccc3)n2)c(SCc2ccccc2)cc1Cl ; retrieve measured GI50.
5.68 µM

Param item = C[N+](C)(CCCCCC[N+](C)(C)CCCN1C(=O)c2cc3ccccc3cc2C1=O)CCCN1C(=O)c2ccccc2C1=O ; retrieve measured GI50.
> 37.5 µM

###

Listed next: entries and their corresponding TGI.
# Tested on: MOLT-4 leukemia
# protocolNotes: NCI tumour cell line growth inhibition, 48 h
Reply with just the number (in µM).

CN(C)CCNc1ccc2c(=O)n(CCN(C)C)c(=O)n3c4ccc(N)cc4c(=O)c1c23: 0.161

Now for the molecule whose TGI we want.
Param item = CCOC(=O)c1ccc(N2C(=O)/C(=C\OC)c3ccccc3C2=O)cc1 ; retrieve measured TGI.
89.3

###

Listed next: entries and their corresponding TGI.
# Test system: MOLT-4 leukemia
# protocolNotes: NCI tumour cell line growth inhibition, 48 h

Check out these entries, answers already filled in.
CCOC(=O)CCC(NC(=O)c1ccc(Nc2nc3cc(C(F)(F)F)ccc3nc2-c2ccccc2)cc1)C(=O)OCC (stereo not given): > 100 µM
O=S(=O)(O)c1c(N=Nc2c(O)ccc3ccccc23)ccc2ccccc12: > 100 µM
NC1=NC(OCC2(CO)CCC2)C=C(NCC2(CO)CCC2)N1 (stereo not given): > 100 µM

Now for the molecule whose TGI we want.
Param item = OCCCCC#Cc1ccccc1C#Cc1ccccc1C(F)(F)F ; retrieve measured TGI.
12.9 µM

###

# Tested on: U251 CNS
Listed next: entries and their corresponding GI50.

Param item = CCN(CC)CCOc1ccc(/C=C2\CC3C4CC=C5C[C@@H](N6CCCC6)CC[C@]5(C)C4CC[C@]3(C)[C@H]2O)cc1OC (some centres undefined) ; retrieve measured GI50.
3.08 µM

Param item = O=C([CH-]C(=O)c1ccccc1)c1ccccc1.O=C([CH-]C(=O)c1ccccc1)c1ccccc1.[Nd+3].[OH-].[OH3+] ; retrieve measured GI50.
7.13 µM

Param item = Cc1nc2cccc(NCc3ccc(C(=O)NO)cc3)c2c(=O)n1-c1ccccc1 ; retrieve measured GI50.
1.56 µM

Param item = Cc1ccc2c(=O)c3cccc(CC(=O)O)c3oc2c1C ; retrieve measured GI50.
> 100 µM

###

# System: ACHN renal
# protocolNotes: NCI tumour cell line growth inhibition, 48 h
Listed next: entries and their corresponding TGI.
Reply with just the number (in µM).

COc1cc2c(/C=C3/C(=O)Nc4ccccc43)c(Cl)n(Cc3ccccc3[N+](=O)[O-])c2cc1C: 19.6
O=[N+]([O-])c1cccc2nccc(NCC(O)CO)c12 (stereo not given): 45.2
OCCCCC#Cc1ccccc1C#Cc1ccccc1C(F)(F)F: 23.5
CC(=O)OCC1OC(O[C@@H]2c3c(O)c4c(c(O)c3C3=C(NN(c5ccc([N+](=O)[O-])cc5[N+](=O)[O-])[Se]3=O)[C@@]2(C)O)C(=O)c2ccccc2C4=O)C(OC(C)=O)C(OC(C)=O)C1OC(C)=O (stereo not given in full): 0.607
O=C(Oc1ccc(CCl)cc1)c1ccccc1: 0.246

Now for the molecule whose TGI we want.
Provide the documented TGI with ACHN renal as the system for C/C=C(\C)C(=O)O[C@H]1C=CC(=O)O[C@H]1CNC(=O)[C@H](C)O
29.9
